Give measured PBM binding z-score for each item. Keep answers brief.
Tested on: THRa homodimer (NR concentration 90 nM)
Assay: PBM binding z-score (relative to random genomic background probes); higher = stronger binding; sequences stand for … in GC…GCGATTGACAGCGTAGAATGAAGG
Numbers only.

1. TCATATAGGTAATACACGTGAAAGTCGGCATCTA    -0.0139
2. TCTCGGAGGACACGAAAGGTCAGGGCTCGACATC    2
3. GCATATAGATAATACAAGGTGAAAGTCCGATTGT    0.964
4. TCGAGTAGGTAAGGGGCATTCAGAATGGCGTCGA    -0.325
5. GATACAGGGCCAAGGCCAGAGTACGCGTATTGAT    -0.281

Please examine the following record next.
Ask: Given the sequence CCTTACGGGTAAAGGTTATAGCACGGGTGGTACG , what is its reported PBM binding z-score?
Result: 0.0229
